Tested on: HSV2 strain G
procedure.details: HSV2 primary assay, strain G, HFF cells
Format: cell-based, herpes simplex virus 2
reported.conditions: Human alphaherpesvirus 2; HSV2 primary assay, strain G, HFF cells; read-out: EC50
measured.attribute: EC50 (µM)
Please respond with the number in µM and leave the unit unwritten.

Worked cases, answers included:
>>> df
                                   molecule  measured_result
0  CC(C)(C)OC(=O)N[C@H]1CCC(Nc2cc3c4ccc(F)cc4nn3cn2)C1 (some centres unmarked)               10
1  Nc1nc2c(ncn2COCCO)c(=O)[nH]1 [Acyclovir, reference compound]             2.56

Enter reported EC50 observed with HSV2 strain G for NCC1CCC(Nc2cc3c4ccc(F)cc4nn3cn2)CC1 (centres unmarked)
10

Enter reported EC50 observed with HSV2 strain G for `O=S1(=O)CCC(Nc2cc3c4ccc(F)cc4nn3cn2)CC1`
50

Enter reported EC50 observed with HSV2 strain G for `Fc1ccc2c(c1)nn1cnc(NC3CCSCC3)cc21`
50

Every entry's value here was drawn from patent US20240309004A1.
